biological target: UniProt:P36888; experiment: HTRF binding assay of FL to FLT3 (TR-FRET, SNAP-FLT3 transfected HEK293T cells); conditions: HEK293T cells transfected with SNAP-FLT3, labelled with SNAP-Lumi4-Tb; compounds 1 h at room temperature, then FL-d2 (0.5 nM), read after 20 h; 12 dilutions in triplicates, performed twice; read-out: Inhibition of FLT3 binding IC50, binding
Structures can show the parent of a compound that is named as a salt.
result type: IC50 (µM)

INSERT INTO assay_data (molecule, unit_label, observed_value) VALUES
  ('CN1CCN(c2ccc(C(=O)Nc3cccc4nccnc34)cc2)CC1', 'µM', 0.6),
  ('CN(C)CCOc1ccc(C(=O)Nc2ccc(F)c3cccnc23)cc1', 'µM', 1.4),
  ('CN(C)CCOc1ccc(C(=O)Nc2cccc3cnncc23)cc1', 'µM', 25),
  ('COc1cc(C(=O)Nc2cccc3ncccc23)ccc1N1CCN(C)CC1', 'µM', 2.3),
  ('CN(C)CCOc1ccc(C(=O)Nc2ccc(F)c3cnccc23)cc1', 'µM', 2.3),
  ('CN1CCN(c2ccc(C(=O)Nc3ccc(Cl)c4ncccc34)cc2)CC1', 'µM', 1),
  ('COc1ccc(NC(=O)c2ccc(OCCN(C)C)cc2)c2ccncc12', 'µM', 0.5),
  ('CN(C)CCOc1ccc(C(=O)Nc2ccc(F)c3ncccc23)cc1', 'µM', 6.2),
  ('CN(C)CCOc1ccc(C(=O)Nc2cccc3ccncc23)cc1', 'µM', 0.8),
  ('Cc1cc(C(=O)Nc2cccc3ncccc23)ccc1N1CCN(C)CC1', 'µM', 1.2),
  ('CN1CCC(c2ccc(C(=O)Nc3ccc(Cl)c4ncccc34)cc2)CC1', 'µM', 1.9),
  ('CN(C)CCOc1ccc(C(=O)Nc2cccc3ncccc23)cc1', 'µM', 1.7),
  ('CN1CCC(c2ccc(C(=O)Nc3cccc4nccnc34)cc2)CC1', 'µM', 0.4),
  ('CN1CCN(c2ccc(C(=O)Nc3ccc(C(F)(F)F)c4ccncc34)cc2)CC1 [(52), hydrochloride]', 'µM', 7.5),
  ('CN1CCC(c2ccc(C(=O)Nc3cccc4cnccc34)cc2F)CC1', 'µM', 1.4),
  ('CN1CCC(c2ccc(C(=O)Nc3cccc4ncccc34)cc2)CC1', 'µM', 1.3),
  ('CN(C)CCOc1ccc(C(=O)Nc2ccc(F)c3nccnc23)cc1', 'µM', 0.5),
  ('COc1cc(C2CCN(C)CC2)ccc1C(=O)Nc1cccc2cccnc12', 'µM', 0.6),
  ('CN(C)CCOc1ccc(C(=O)Nc2cccc3ccncc23)cc1C#N', 'µM', 2.5),
  ('CN1CCC(c2ccc(C(=O)Nc3cccc4cnccc34)cc2C#N)CC1', 'µM', 2),
  ('CN1CCN(c2ccc(C(=O)Nc3cccc4ncccc34)cc2)CC1', 'µM', 1.7),
  ('CN1CCC(c2ccc(C(=O)Nc3ccc(F)c4cnccc34)cc2)CC1', 'µM', 1.4),
  ('CN1CCC(c2ccc(C(=O)Nc3cccc4cccnc34)c(F)c2)CC1', 'µM', 1.8),
  ('CN1CCC(c2ccc(C(=O)Nc3cccc4cnccc34)c(S(C)(=O)=O)c2)CC1', 'µM', 2.6),
  ('CN1CCN(c2ccc(C(=O)Nc3ccc(F)c4cccnc34)cc2)CC1', 'µM', 3.1),
  ('CN1CCC(c2ccc(C(=O)Nc3ccc(F)c4cccnc34)cc2)CC1', 'µM', 1.2),
  ('CN1CCC(c2ccc(C(=O)Nc3cccc4ncccc34)cc2C(F)(F)F)CC1', 'µM', 3.6);

* * *

# pIC50 per entry
target: UniProtKB P36888; test: HTRF binding assay of FL to FLT3 (TR-FRET, SNAP-FLT3 transfected HEK293T cells); conditions: HEK293T cells transfected with SNAP-FLT3, labelled with SNAP-Lumi4-Tb; compounds 1 h at room temperature, then FL-d2 (0.5 nM), read after 20 h; 12 dilutions in triplicates, performed twice; read-out: Inhibition of FLT3 binding IC50, binding
pIC50: −log10 of the molar value.
result type: pIC50

INSERT INTO assay_data (molecule, result_type, observed_value) VALUES
  ('Cc1cc(C(=O)Nc2cccc3cccnc23)ccc1OCCN(C)C [(43)]', 'pIC50', 5.68),
  ('CN1CCN(c2ccc(C(=O)Nc3cccc4cnccc34)cc2F)CC1 [(24)]', 'pIC50', 5.96),
  ('CN1CCN(c2ccc(C(=O)Nc3ccc(F)c4ncccc34)cc2)CC1 [(44)]', 'pIC50', 5.42),
  ('CN1CCC(c2ccc(C(=O)Nc3ccc(F)c4nccnc34)cc2)CC1 [(5)]', 'pIC50', 6.40),
  ('Cc1cc(N2CCN(C)CC2)ccc1C(=O)Nc1cccc2cnccc12 [(45)]', 'pIC50', 6.00),
  ('CN(C)CCOc1ccc(C(=O)Nc2cccc3cccnc23)cc1 [(11)]', 'pIC50', 5.54),
  ('CN(C)CCOc1ccc(C(=O)Nc2ccc(F)c3ccncc23)cc1 [(22)]', 'pIC50', 5.72),
  ('CN(C)CCOc1ccc(C(=O)Nc2cccc3ncccc23)c(C(F)(F)F)c1 [(49)]', 'pIC50', 5.62),
  ('CN(C)CCOc1ccc(C(=O)Nc2cccc3cnccc23)cc1 [(14)]', 'pIC50', 6.05),
  ('CN(C)CCOc1ccc(C(=O)Nc2cccc3cnccc23)cc1C(F)(F)F [(48)]', 'pIC50', 5.89);

* * *

Target: FLT3 (Homo sapiens, UniProt P36888)
Assay: HTRF binding assay of FL to FLT3 (TR-FRET, SNAP-FLT3 transfected HEK293T cells)
Settings: HEK293T cells transfected with SNAP-FLT3, labelled with SNAP-Lumi4-Tb; compounds 1 h at room temperature, then FL-d2 (0.5 nM), read after 20 h; 12 dilutions in triplicates, performed twice; read-out: Inhibition of FLT3 binding IC50, binding
Description: The binding of FL to FLT3 was measured by a Homologous Time-Resolved Fluorescence (HTRF) assay (Degorce et al., Current Chemical Genomics, 2009, 3, 22-32), which involves resonance energy transfer between a donor, Lumi4-Tb-donor-derivatized benzylguanine substrate (SNAP-Lumi4-Tb, excitation: 337 nm, emission: 630 nm, Cisbio, France), transfected in HEK cells, and an acceptor, red fluorescent FL (FL-d2, excitation: 620 nm, emission: 660 nm, Cisbio, France). […]
pIC50: −log10 of the molar value.
# pIC50 per entry
result type: pIC50

INSERT INTO measurements (sample_smiles, result_type, observed_value) VALUES
  ('CN1CCC(c2ccc(C(=O)Nc3cccc4cccnc34)cc2)CC1', 'pIC50', 5.82),
  ('CN1CCC(c2ccc(C(=O)Nc3ccc(F)c4ccncc34)cc2)CC1', 'pIC50', 5.74),
  ('CN1CCC(c2ccc(C(=O)Nc3cccc4cccnc34)c(C(F)(F)F)c2)CC1', 'pIC50', 5.77),
  ('CN1CCN(c2ccc(C(=O)Nc3cccc4cnccc34)cc2)CC1', 'pIC50', 6.10),
  ('COc1cc(C(=O)Nc2cccc3cnccc23)ccc1C1CCN(C)CC1', 'pIC50', 6.05);

* * *

# pIC50 per entry
Target: FLT3 (Homo sapiens, UniProt P36888)
Sequence (P36888 27-993): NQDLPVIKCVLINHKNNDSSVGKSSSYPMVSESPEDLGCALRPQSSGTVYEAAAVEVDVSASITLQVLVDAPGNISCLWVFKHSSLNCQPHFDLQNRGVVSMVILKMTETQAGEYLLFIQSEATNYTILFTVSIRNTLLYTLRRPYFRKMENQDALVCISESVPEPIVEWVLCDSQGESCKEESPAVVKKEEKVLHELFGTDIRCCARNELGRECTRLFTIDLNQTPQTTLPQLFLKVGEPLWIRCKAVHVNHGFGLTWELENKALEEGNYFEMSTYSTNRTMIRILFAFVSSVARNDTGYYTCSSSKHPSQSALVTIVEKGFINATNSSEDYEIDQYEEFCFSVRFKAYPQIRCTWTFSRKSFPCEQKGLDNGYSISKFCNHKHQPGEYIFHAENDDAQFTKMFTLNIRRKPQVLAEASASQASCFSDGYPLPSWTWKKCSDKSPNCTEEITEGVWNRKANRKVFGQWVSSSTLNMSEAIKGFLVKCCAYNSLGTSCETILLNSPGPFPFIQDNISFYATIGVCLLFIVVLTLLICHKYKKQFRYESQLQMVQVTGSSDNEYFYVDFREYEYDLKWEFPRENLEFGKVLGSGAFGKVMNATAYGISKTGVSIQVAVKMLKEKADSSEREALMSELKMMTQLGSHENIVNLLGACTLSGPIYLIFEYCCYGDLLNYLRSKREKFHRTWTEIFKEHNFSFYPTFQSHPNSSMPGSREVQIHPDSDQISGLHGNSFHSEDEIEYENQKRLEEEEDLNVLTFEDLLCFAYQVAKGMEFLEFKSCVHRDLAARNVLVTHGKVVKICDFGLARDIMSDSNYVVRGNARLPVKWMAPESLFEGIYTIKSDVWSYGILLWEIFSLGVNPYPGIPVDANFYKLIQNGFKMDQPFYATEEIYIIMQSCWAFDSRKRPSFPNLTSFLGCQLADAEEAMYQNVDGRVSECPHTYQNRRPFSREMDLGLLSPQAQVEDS
Experiment: HTRF binding assay of FL to FLT3 (TR-FRET, SNAP-FLT3 transfected HEK293T cells)
Settings: HEK293T cells transfected with SNAP-FLT3, labelled with SNAP-Lumi4-Tb; compounds 1 h at room temperature, then FL-d2 (0.5 nM), read after 20 h; 12 dilutions in triplicates, performed twice; read-out: Inhibition of FLT3 binding IC50, binding
pIC50: −log10 of the molar value. Counter-ions that a name gives are not always drawn.
result type: pIC50

INSERT INTO results (compound, assay_target, observed_value) VALUES
  ('CN1CCC(c2ccc(C(=O)Nc3cccc4ccncc34)cc2)CC1 [(8)]', 'FLT3 (Homo sapiens, UniProt P36888)', 6.10),
  ('CN(C)CCOc1ccc(C(=O)Nc2ccc(Cl)c3ncccc23)cc1 [(32)]', 'FLT3 (Homo sapiens, UniProt P36888)', 5.62),
  ('CN1CCC(c2ccc(C(=O)Nc3cccc4cnccc34)cc2)CC1 [(7)]', 'FLT3 (Homo sapiens, UniProt P36888)', 6.10),
  ('CN(C)CCOc1ccc(C(=O)Nc2cccc3nccnc23)cc1 [(31)]', 'FLT3 (Homo sapiens, UniProt P36888)', 6.15),
  ('CN1CCN(c2ccc(C(=O)Nc3ccc(Cl)c4cnccc34)cc2)CC1 [(51), hydrochloride]', 'FLT3 (Homo sapiens, UniProt P36888)', 5.89),
  ('CN1CCN(c2ccc(C(=O)Nc3cccc4cccnc34)cc2)CC1 [(35)]', 'FLT3 (Homo sapiens, UniProt P36888)', 5.77),
  ('Cc1cc(OCCN(C)C)ccc1C(=O)Nc1cccc2ncccc12 [(47)]', 'FLT3 (Homo sapiens, UniProt P36888)', 5.77),
  ('CN1CCC(c2ccc(C(=O)Nc3ccc(F)c4ncccc34)cc2)CC1 [(4)]', 'FLT3 (Homo sapiens, UniProt P36888)', 5.28),
  ('CN1CCN(c2ccc(C(=O)Nc3cccc4ccncc34)cc2)CC1 [(38)]', 'FLT3 (Homo sapiens, UniProt P36888)', 6.22),
  ('CN1CCN(c2ccc(C(=O)Nc3ccc(F)c4nccnc34)cc2)CC1 [(37)]', 'FLT3 (Homo sapiens, UniProt P36888)', 6.15);

// provenance: patent EP4353712A1
